Molecular target: GABAA1 (α1β2γ2) receptor (Homo sapiens, UniProt P14867+P47870)
Construct: expressed in transfected cells
Sequence (P14867 28-456): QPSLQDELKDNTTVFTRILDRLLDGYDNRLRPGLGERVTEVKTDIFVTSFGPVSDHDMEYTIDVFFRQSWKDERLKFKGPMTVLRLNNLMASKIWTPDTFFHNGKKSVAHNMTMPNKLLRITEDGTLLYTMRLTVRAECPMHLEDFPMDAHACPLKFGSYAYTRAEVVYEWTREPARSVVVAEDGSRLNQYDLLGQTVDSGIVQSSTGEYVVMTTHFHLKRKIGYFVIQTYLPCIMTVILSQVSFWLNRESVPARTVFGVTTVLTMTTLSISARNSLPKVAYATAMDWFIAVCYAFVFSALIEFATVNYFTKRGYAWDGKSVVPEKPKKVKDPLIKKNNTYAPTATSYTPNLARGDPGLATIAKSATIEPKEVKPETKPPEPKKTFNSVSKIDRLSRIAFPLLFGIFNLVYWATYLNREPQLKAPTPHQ
Sequence (P47870 26-512): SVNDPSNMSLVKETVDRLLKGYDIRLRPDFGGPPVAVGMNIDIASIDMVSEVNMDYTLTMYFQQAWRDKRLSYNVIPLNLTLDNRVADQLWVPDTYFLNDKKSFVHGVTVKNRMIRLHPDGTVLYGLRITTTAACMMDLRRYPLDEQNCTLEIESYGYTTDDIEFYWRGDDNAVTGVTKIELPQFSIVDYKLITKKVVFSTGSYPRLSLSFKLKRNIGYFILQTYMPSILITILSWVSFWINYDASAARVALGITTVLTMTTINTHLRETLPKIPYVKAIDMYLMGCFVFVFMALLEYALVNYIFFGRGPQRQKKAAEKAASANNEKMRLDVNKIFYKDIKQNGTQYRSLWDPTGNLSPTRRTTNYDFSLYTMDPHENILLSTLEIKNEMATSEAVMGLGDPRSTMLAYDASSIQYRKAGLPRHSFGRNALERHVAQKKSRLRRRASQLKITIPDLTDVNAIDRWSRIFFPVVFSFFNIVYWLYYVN
Sequence (P18507 40-475 partner): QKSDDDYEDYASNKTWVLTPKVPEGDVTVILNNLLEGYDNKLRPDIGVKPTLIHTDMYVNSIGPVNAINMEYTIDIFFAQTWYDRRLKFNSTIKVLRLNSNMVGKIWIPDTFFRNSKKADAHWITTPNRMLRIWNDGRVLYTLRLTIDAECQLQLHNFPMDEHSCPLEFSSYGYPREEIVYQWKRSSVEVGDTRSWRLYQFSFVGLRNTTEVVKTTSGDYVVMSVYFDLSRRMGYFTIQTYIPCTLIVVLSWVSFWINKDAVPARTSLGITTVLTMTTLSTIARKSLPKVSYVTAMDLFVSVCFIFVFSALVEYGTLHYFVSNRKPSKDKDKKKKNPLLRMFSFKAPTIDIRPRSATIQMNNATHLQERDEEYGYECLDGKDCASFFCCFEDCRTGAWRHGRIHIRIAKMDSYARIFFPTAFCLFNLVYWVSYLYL
Assay: Patch-clamp electrophysiology on recombinant GABAA1 receptor in HEK293 cells, with 3 μM GABA
Assay type: cell-based
Conditions: HEK293; 1 μM compound together with 3 μmol GABA; read-out: potency: ratio of the peak current on the GABAA1 receptor to the peak current in 100 μmol GABA
Overview of reported Emax at 1 µM across a group of compounds:

C[C@@]1(O)CC[C@@]2(C)[C@@H](CC[C@@H]3[C@@H]2CC[C@]2(C)[C@@H](C(=O)COc4ncnc5cnc(F)cc45)CCC[C@@H]32)C1 [KH036] :: 0 to 20%

Next item in the queue.
Exercise: Form field: reported Emax at 1 µM of C[C@@]1(O)CC[C@H]2[C@H](CC[C@@H]3[C@@H]2CC[C@]2(C)[C@@H](C(=O)COc4nc[nH]n4)CCC[C@@H]32)C1 [KH051]
Solution: 0 to 20%
